# System: ACHN renal
# PROTOCOL_DETAILS: NCI-60 one-dose screen, 48 h (100 = growth as untreated, 0 = no growth, -100 = all killed)
# APPLIED_CONDITIONS: 10 µM unless noted
Compounds without any hit were thinned out: in the full panel of roughly 83,000, 20% have a hit.
Grouping rule (growth): lo (below 30%), mid (30% to below 80%), hi (80% or more)

### Prompt Class for "CC(C)C[C@H](NC(=O)CNC(=O)C[C@H]1O[C@@H]2OC3(C)CC[C@H]4[C@H](C)CC[C@@H]([C@H]1C)[C@@]24O3)B(O)O" ?
### Response lo

### Prompt Dear colleague, I would appreciate it if you could identify the bin for "C/C(=N/O)c1ccc(NC(=O)CSc2nnc(-c3ccc(-c4nc5ccc(Cl)cc5[nH]4)cc3)o2)cc1" and reply at your convenience.
### Response mid

### Prompt Input CC(C)(C)C(=O)C1CC(C#N)=C2C=Cc3c(ccc4ccccc34)N21 (centres undefined) ; output its category
### Response hi

### Prompt Form field 'band' for "c1n[nH]cc1-c1nc2ccc3cn[nH]c3c2c2c1CCCC2"
### Response mid

### Prompt // return the class label for "Cc1cccc(-c2ccccc2Oc2ccc3nnc(Cl)n3n2)c1"
### Response hi

### Prompt Lab log: "Nc1nn2c(-c3cc4cc(Br)ccc4oc3=O)ccnc2c1N=Nc1ccc(S(N)(=O)=O)cc1" — assign growth category
### Response hi

### Prompt // bin(item) where item = "O=CNc1cccc(-n2cnc3cc(-c4ccc(O)cc4)ccc32)c1"
### Response lo

### Prompt Lab note: sort "COc1ccc2[nH]c(O)c(N=Nc3nc(-c4ccc(Br)cc4)cs3)c2c1" into the matching growth band.
### Response lo

### Prompt Which class holds "O=c1[nH]c2ccccc2cc1CSc1ccccc1Nc1nccc(-c2ccc3c(c2)OCO3)n1" ?
### Response mid

### Prompt Where would "CC(C)(C)OC(=O)N1CCC2(CC1)Oc1ccccc1[C@H]1CC(c3ccc(Br)cc3)=NN12" land among the classes by reported growth?
### Response mid

### Prompt Assign a bin to "FC(F)(F)CN1CCN(CCn2c(C(F)(F)F)cc3c(Cl)ncnc32)CC1"
### Response lo

### Prompt For this compound, which bin applies? "COc1cccc(C(N)=Nc2ccc(OCCCCCCCCn3cncn3)cc2)c1"
### Response lo

### Prompt Into which category would you place "COc1cc(CNC(=O)C[C@H](C)CCC=C(C)C)ccc1OCc1cn(-c2cccc(C(F)(F)F)c2)nn1" ?
### Response mid

### Prompt Assign a bin to Clc1ccc(CNc2nc(SCCN3CCOCC3)nc3c2cnn3CC(Cl)c2ccc(Br)cc2)cc1 (centres undefined)
### Response lo

### Prompt Which bin should I file COc1cc(C2CC(c3ccc(Cl)cc3)=Nc3c(N)nc(N)nc3N2)ccc1Oc1nc(Nc2ccc(F)cc2)nc(N(C)C)n1 (centres undefined) under?
### Response mid

### Prompt Which growth band matches "Cc1nn(-c2ccccc2)c2nc(C)n(C(=O)N/N=C/c3cccc([N+](=O)[O-])c3)c(=O)c12" ?
### Response hi

### Prompt Consider "COc1ccc(/C=C/C(=O)c2ccc(S(=O)(=O)NCCNc3nc(N(C)C)nc(N4CCOCC4)n3)cc2)cc1" . To which growth class does it belong?
### Response hi

### Prompt Which class holds "C=CC(=O)N1CCN(c2ccc3nc4c(nc3c2C(F)(F)F)C(=O)c2ncccc2C4=O)CC1" ?
### Response lo
